Ref: paper PMC6017655

As shown below, each of these compounds has a reported activity at 10 µM value.
tested on: PqsR (pqsA promoter, PAO1-L mCTX::PpqsA-lux); experiment: Whole cell biosensor reporter assay, PAO1-L mCTX::PpqsA-lux; format: cell-based, Pseudomonas aeruginosa; conditions: Pseudomonas aeruginosa, PAO1, read-out: PAO1-L Remaining Activity %
Note: unit % is implicit; provide only the numeric part.

Example entries begin here.
COMPOUND: CC(=O)N1N=C(c2ccc(Br)cc2)CC1c1cccc(Nc2ccnc3cc(C(F)(F)F)ccc23)c1 (stereo not shown)
NUMERIC_RESULT: 80.8

COMPOUND: O=CN1N=C(c2ccc(Cl)cc2)CC1c1cccc(Nc2ccnc3cc(C(F)(F)F)ccc23)c1 (stereo not shown)
NUMERIC_RESULT: 61.8

COMPOUND: COc1ccc(C2=NN(C(C)=O)C(c3cccc(Nc4ccnc5cc(Cl)ccc45)c3)C2)cc1 (stereo not shown)
NUMERIC_RESULT: 120

Tell me its activity at 10 µM given COc1cc(C2=NN(C=O)C(c3cccc(Nc4ccnc5cc(C(F)(F)F)ccc45)c3)C2)cc(OC)c1OC (stereo not shown) as the entry.
85.8

----------
half-life at 1 µM values for the molecules below.
assay: Plasma stability, human; assay type: in vitro ADME; settings: human, plasma, 37 °C, up to 2 h, read-out: Plasma Stability Human t 1/2
Answer with a number only, understood to be in h.

Some solved entries appear below for comparison.
MOLECULE: CC(=O)N1N=C(c2ccccc2)CC1c1cccc(Nc2ccnc3cc(Cl)ccc23)c1 (stereo not shown) [IIa]
UNIT_SYMBOL: h
NUMERIC_RESULT: 1.23
--
MOLECULE: O=CN1N=C(c2ccccc2)CC1c1cccc(Nc2ccnc3cc(C(F)(F)F)ccc23)c1 (stereo not shown) [Ii]
UNIT_SYMBOL: h
NUMERIC_RESULT: 1.15
--
MOLECULE: CC(=O)N1N=C(c2ccccc2)CC1c1cccc(Nc2ccnc3cc(C(F)(F)F)ccc23)c1 (stereo not shown) [IIi]
UNIT_SYMBOL: h
NUMERIC_RESULT: 2.62

For the next question, use this molecule.
Using known records, supply half-life at 1 µM for O=CN1N=C(c2ccccc2)CC1c1cccc(Nc2ccnc3cc(Cl)ccc23)c1 (stereo not shown) [Ia]
2.2

----------
test: Plasma stability, rat; type: in vitro ADME; details: 37 °C, up to 2 h, read-out: Plasma Stability Rat t1/2
READOUT: half-life at 1 µM

MOLECULE: CC(=O)N1N=C(c2ccccc2)CC1c1cccc(Nc2ccnc3cc(C(F)(F)F)ccc23)c1 (stereo not shown) [IIi]
half-life at 1 µM: > 4 h

MOLECULE: O=CN1N=C(c2ccccc2)CC1c1cccc(Nc2ccnc3cc(Cl)ccc23)c1 (stereo not shown) [Ia]
half-life at 1 µM: > 4 h

Indicate the recorded half-life at 1 µM value for this molecule: CC(=O)N1N=C(c2ccccc2)CC1c1cccc(Nc2ccnc3cc(Cl)ccc23)c1 (stereo not shown) [IIa]
> 4 h

Return half-life at 1 µM for the following molecule: O=CN1N=C(c2ccccc2)CC1c1cccc(Nc2ccnc3cc(C(F)(F)F)ccc23)c1 (stereo not shown) [Ii]
> 4 h

----------
assay: Hepatic microsomal stability, human; assay type: in vitro ADME; conditions: liver microsomes, pH 7.4, 0.5 mg/mL protein, NADPH, 37 °C, read-out: Microsomal Stability Human t1/2
half-life at 1 µM by entry:
// units = min; emit number, no label

Example entries begin here.
COMPOUND: CC(=O)N1N=C(c2ccccc2)CC1c1cccc(Nc2ccnc3cc(C(F)(F)F)ccc23)c1 (stereo not shown)
READOUT: half-life at 1 µM
NUMERIC_RESULT: 19

COMPOUND: CC(=O)N1N=C(c2ccccc2)CC1c1cccc(Nc2ccnc3cc(Cl)ccc23)c1 (stereo not shown)
READOUT: half-life at 1 µM
NUMERIC_RESULT: 19

COMPOUND: O=CN1N=C(c2ccccc2)CC1c1cccc(Nc2ccnc3cc(C(F)(F)F)ccc23)c1 (stereo not shown)
READOUT: half-life at 1 µM
NUMERIC_RESULT: 17.2

Switching to the query record.
Fill in half-life at 1 µM for record O=CN1N=C(c2ccccc2)CC1c1cccc(Nc2ccnc3cc(Cl)ccc23)c1 (stereo not shown)
23.3

----------
A collection of compounds and their measured half-life at 1 µM
assay: Hepatic microsomal stability, rat; type: in vitro ADME; conditions: liver microsomes, pH 7.4, 0.5 mg/mL protein, NADPH, 37 °C, read-out: Microsomal Stability Rat t1/2
Reply numerically in min, unit not repeated.

Worked cases, answers included:
COMPOUND: CC(=O)N1N=C(c2ccccc2)CC1c1cccc(Nc2ccnc3cc(C(F)(F)F)ccc23)c1 (stereo not shown)
READOUT: half-life at 1 µM
NUMERIC_RESULT: 21.1
--
COMPOUND: CC(=O)N1N=C(c2ccccc2)CC1c1cccc(Nc2ccnc3cc(Cl)ccc23)c1 (stereo not shown)
READOUT: half-life at 1 µM
NUMERIC_RESULT: 15.8
--
COMPOUND: O=CN1N=C(c2ccccc2)CC1c1cccc(Nc2ccnc3cc(Cl)ccc23)c1 (stereo not shown)
READOUT: half-life at 1 µM
NUMERIC_RESULT: 11.5

Next compound, half-life at 1 µM to be filled in.
Write down half-life at 1 µM measured for item O=CN1N=C(c2ccccc2)CC1c1cccc(Nc2ccnc3cc(C(F)(F)F)ccc23)c1 (stereo not shown)
25.7

----------
Known activity at 10 µM of a selection of compounds
test system: PqsR (pqsA promoter, PAO1-L mCTX::PpqsA-lux); experiment: Whole cell biosensor reporter assay, PAO1-L mCTX::PpqsA-lux; assay type: cell-based, Pseudomonas aeruginosa; details: Pseudomonas aeruginosa, PAO1, read-out: PAO1-L Remaining Activity %
Numbers only; they are read as %.

Example cases with answers are listed next.
COMPOUND: CC(=O)N1N=C(c2ccc(Br)cc2)CC1c1cccc(Nc2ccnc3cc(Cl)ccc23)c1 (centres unmarked)
activity at 10 µM [%]: 63.7

COMPOUND: Cc1ccc(C2=NN(C=O)C(c3cccc(Nc4ccnc5cc(C(F)(F)F)ccc45)c3)C2)cc1 (centres unmarked)
activity at 10 µM [%]: 93.7

COMPOUND: CC(=O)N1N=C(c2ccc(F)cc2)CC1c1cccc(Nc2ccnc3cc(Cl)ccc23)c1 (centres unmarked)
activity at 10 µM [%]: 82.6

COMPOUND: CC(=O)N1N=C(c2ccc(Cl)cc2)CC1c1cccc(Nc2ccnc3cc(Cl)ccc23)c1 (centres unmarked)
activity at 10 µM [%]: 90.2

Write down measured activity at 10 µM (PqsR (pqsA promoter, PAO1-L mCTX::PpqsA-lux)) for this compound. O=CN1N=C(c2ccc(F)cc2)CC1c1cccc(Nc2ccnc3cc(C(F)(F)F)ccc23)c1 (centres unmarked)
65.1

Param request: activity at 10 µM | system PqsR (pqsA promoter, PAO1-L mCTX::PpqsA-lux) | item O=CN1N=C(c2ccccc2)CC1c1cccc(Nc2ccnc3cc(Cl)ccc23)c1 (centres unmarked)
25.8

Look up and report measured activity at 10 µM (PqsR (pqsA promoter, PAO1-L mCTX::PpqsA-lux)) for the following compound: O=CN1N=C(c2ccc(Br)cc2)CC1c1cccc(Nc2ccnc3cc(C(F)(F)F)ccc23)c1 (centres unmarked)
68.5

Report activity at 10 µM on PqsR (pqsA promoter, PAO1-L mCTX::PpqsA-lux) for this entry: CC(=O)N1N=C(c2ccc3c(c2)OCO3)CC1c1cccc(Nc2ccnc3cc(Cl)ccc23)c1 (centres unmarked)
65.8

----------
system: PqsR (pqsA promoter, PAO1-L mCTX::PpqsA-lux); test: Whole cell biosensor reporter assay, PAO1-L mCTX::PpqsA-lux; assay type: cell-based, Pseudomonas aeruginosa; conditions: Pseudomonas aeruginosa, PAO1, read-out: PAO1-L Remaining Activity %
READOUT: activity at 10 µM (%)
Express your answer in %, writing the number without its unit.

Example results:
COMPOUND: COc1ccc(C2=NN(C=O)C(c3cccc(Nc4ccnc5cc(Cl)ccc45)c3)C2)cc1 (centres unmarked)
activity at 10 µM (%): 100
//
COMPOUND: Cc1ccc(C2=NN(C=O)C(c3cccc(Nc4ccnc5cc(Cl)ccc45)c3)C2)cc1 (centres unmarked)
activity at 10 µM (%): 77

Tell me measured activity at 10 µM for CC(=O)N1N=C(c2ccc(F)cc2)CC1c1cccc(Nc2ccnc3cc(C(F)(F)F)ccc23)c1 (centres unmarked) please.
90.2

State its activity at 10 µM for this compound: O=CN1N=C(c2ccc3c(c2)OCO3)CC1c1cccc(Nc2ccnc3cc(C(F)(F)F)ccc23)c1 (centres unmarked)
84.3

----------
test: Hepatic microsomal stability, rat; type: in vitro ADME; conditions: liver microsomes, pH 7.4, 0.5 mg/mL protein, NADPH, 37 °C, read-out: Microsomal Stability Rat Clint (intrinsic clearance)
READOUT: microsomal CLint at 1 µM
Hey, just the number and the unit after it is fine.

Worked examples follow.
COMPOUND: CC(=O)N1N=C(c2ccccc2)CC1c1cccc(Nc2ccnc3cc(C(F)(F)F)ccc23)c1 (stereo not shown)
microsomal CLint at 1 µM: 65.7 µL/min/mg

COMPOUND: CC(=O)N1N=C(c2ccccc2)CC1c1cccc(Nc2ccnc3cc(Cl)ccc23)c1 (stereo not shown)
microsomal CLint at 1 µM: 87.8 µL/min/mg

Note microsomal CLint at 1 µM for the compound shown: O=CN1N=C(c2ccccc2)CC1c1cccc(Nc2ccnc3cc(C(F)(F)F)ccc23)c1 (stereo not shown)
54.1 µL/min/mg

Hello, please tell me recorded microsomal CLint at 1 µM for this one: O=CN1N=C(c2ccccc2)CC1c1cccc(Nc2ccnc3cc(Cl)ccc23)c1 (stereo not shown)
122 µL/min/mg
